pIC50: −log10 of the molar value.
What follows is a record of pIC50 for purified human placenta 20S proteasome (Homo sapiens, UniProt P28074).
ENDPOINT: pIC50

[[record]]
chem_smiles = "COc1cccc(CN[C@@H](C(=O)N[C@H](C(=O)NCc2ccc(OC)cc2O)C(C)C)[C@H](O)[C@H](Cc2ccccc2)NC(=O)[C@@H](NC(=O)OCc2ccccc2)C(C)(C)C)c1"
numeric_readout = 5.82


[A] COc1ccc(CNC(=O)[C@@H](NC(=O)[C@H](NCc2ccc(OC)c(OC)c2OC)[C@H](O)[C@H](Cc2ccccc2)NC(=O)[C@@H](NC(=O)Cc2cccc3ccccc23)C(C)(C)C)C(C)C)c(O)c1
[B] COc1ccc(CNC(=O)[C@@H](NC(=O)[C@H](NCc2cc(OC)c(OC)cc2OC)[C@H](O)[C@H](Cc2ccccc2)NC(=O)[C@@H](NC(=O)Cc2cccc3ccccc23)C(C)(C)C)C(C)C)c(O)c1
[C] COc1ccc(CNC(=O)[C@@H](NC(=O)[C@H](NCc2cc(OC)c(OC)c(OC)c2)[C@H](O)[C@H](Cc2ccccc2)NC(=O)[C@@H](NC(=O)OC(C)(C)C)C(C)(C)C)C(C)C)c(O)c1
# rank_down: sort by pIC50, max first Your answer should be the labels, listed in the requested order.
A, B, C
